TARGET UNDER TEST: Receptor tyrosine-protein kinase erbB-2 (Homo sapiens, UniProt P04626, V777L)
Sequence (P04626 23-1255 V777L limits assumed): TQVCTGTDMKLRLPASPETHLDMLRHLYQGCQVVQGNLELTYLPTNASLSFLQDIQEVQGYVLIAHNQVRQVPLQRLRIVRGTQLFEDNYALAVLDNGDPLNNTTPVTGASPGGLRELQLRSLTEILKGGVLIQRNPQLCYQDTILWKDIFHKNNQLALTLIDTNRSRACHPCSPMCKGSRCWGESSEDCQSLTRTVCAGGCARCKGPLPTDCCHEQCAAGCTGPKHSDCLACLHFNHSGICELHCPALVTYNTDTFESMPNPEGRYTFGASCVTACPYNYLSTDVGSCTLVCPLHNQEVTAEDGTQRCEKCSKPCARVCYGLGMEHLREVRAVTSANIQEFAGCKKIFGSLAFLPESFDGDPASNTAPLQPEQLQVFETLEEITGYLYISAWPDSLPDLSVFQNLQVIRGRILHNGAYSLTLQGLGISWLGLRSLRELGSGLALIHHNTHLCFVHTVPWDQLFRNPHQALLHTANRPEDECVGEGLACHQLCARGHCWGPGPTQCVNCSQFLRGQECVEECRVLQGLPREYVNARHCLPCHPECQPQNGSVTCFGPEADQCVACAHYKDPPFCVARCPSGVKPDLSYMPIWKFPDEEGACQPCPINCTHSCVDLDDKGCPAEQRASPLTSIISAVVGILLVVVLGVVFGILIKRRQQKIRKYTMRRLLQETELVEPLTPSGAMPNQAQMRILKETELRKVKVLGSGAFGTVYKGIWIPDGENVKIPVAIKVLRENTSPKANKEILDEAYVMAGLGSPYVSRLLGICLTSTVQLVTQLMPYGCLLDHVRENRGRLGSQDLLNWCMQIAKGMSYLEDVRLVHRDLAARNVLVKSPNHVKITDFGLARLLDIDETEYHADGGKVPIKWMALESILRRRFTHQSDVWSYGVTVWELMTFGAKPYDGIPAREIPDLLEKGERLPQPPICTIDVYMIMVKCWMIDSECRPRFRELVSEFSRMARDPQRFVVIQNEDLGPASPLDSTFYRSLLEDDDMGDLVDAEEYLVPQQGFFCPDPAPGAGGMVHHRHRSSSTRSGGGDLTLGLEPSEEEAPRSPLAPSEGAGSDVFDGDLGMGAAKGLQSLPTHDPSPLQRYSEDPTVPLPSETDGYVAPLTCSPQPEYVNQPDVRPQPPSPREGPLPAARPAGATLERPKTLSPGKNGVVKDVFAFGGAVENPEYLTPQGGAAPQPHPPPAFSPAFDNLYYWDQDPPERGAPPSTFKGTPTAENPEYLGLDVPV
ASSAY COMMENT: Inhibition of HER2 V777L mutant (unknown origin) incubated for 120 mins in presence of 33P-ATP by P81 ion exchange cellulose chromatography
pIC50: −log10 of the molar value.
pIC50 for assorted compounds

>  <CHEMICAL STRING>
CCOc1cc2ncc(C#N)c(Nc3ccc(OCc4ccccn4)c(Cl)c3)c2cc1NC(=O)/C=C/[C@H]1CCCN1C

>  <TARGET UNDER TEST>
Receptor tyrosine-protein kinase erbB-2 (Homo sapiens, UniProt P04626, V777L)

>  <pIC50>
8.41

$$$$
>  <CHEMICAL STRING>
CCOc1cc2ncnc(Nc3ccc(Oc4cc5nncn5cn4)c(C)c3)c2cc1NC(=O)/C(F)=C/[C@H]1CCCN1C

>  <TARGET UNDER TEST>
Receptor tyrosine-protein kinase erbB-2 (Homo sapiens, UniProt P04626, V777L)

>  <pIC50>
9.80

$$$$
